Origin of measurements: patent US20150352108A1

assayed-target: IKKε (Homo sapiens, UniProt Q14164)
Construct: His-tag; made in house; host or cells: Sf9 insect cells
Sequence (Q14164 whole entry): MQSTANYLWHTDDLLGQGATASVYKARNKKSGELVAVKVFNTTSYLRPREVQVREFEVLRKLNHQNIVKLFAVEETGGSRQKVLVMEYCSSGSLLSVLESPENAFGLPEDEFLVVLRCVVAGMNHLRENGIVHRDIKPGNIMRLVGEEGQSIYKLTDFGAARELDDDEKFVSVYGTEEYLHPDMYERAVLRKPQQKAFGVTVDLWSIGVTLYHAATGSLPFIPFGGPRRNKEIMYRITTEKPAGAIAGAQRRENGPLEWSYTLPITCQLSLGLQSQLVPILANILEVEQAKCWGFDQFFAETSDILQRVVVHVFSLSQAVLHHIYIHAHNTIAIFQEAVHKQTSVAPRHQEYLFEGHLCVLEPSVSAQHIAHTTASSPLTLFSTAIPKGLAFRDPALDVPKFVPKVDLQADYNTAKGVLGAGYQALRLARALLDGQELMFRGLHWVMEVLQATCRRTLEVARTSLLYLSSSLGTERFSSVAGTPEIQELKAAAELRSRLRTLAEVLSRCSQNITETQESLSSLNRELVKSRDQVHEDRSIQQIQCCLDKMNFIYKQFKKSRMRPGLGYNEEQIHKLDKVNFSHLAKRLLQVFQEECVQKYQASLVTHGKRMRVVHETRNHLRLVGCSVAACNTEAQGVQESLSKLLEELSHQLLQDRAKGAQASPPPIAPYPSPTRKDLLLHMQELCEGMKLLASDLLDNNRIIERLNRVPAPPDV
protocol-text: In-vitro IKKε kinase assay ([γ33]ATP filter-plate)
Type: biochemical
measurement-conditions: text bins; read-out: IC50 for inhibition of the kinase activity of IKKε
pIC50: −log10 of the molar value.
reported-property: pIC50

1. Cn1ccc(C(=O)Nc2cccc(Nc3nccc(-c4ccc(OC5CCOCC5)c(C#N)c4)n3)c2)n1 [compound 547]	> 8.30
2. COc1ccc(Nc2nccc(-c3cc(C#N)cc(OCc4ccccc4)c3)n2)cc1OC [Example 145]	6.30 to 7.30
3. N#Cc1cc(-c2ccnc(Nc3cccc(CN4CCN(CCO)CC4)c3)n2)ccc1OC1CCOCC1 [compound 625]	> 8.30
4. COc1cc(Nc2nccc(-c3ccc(OC4CCOCC4)c(C#N)c3)n2)ccc1C(=O)N1CCC1 [compound 567]	> 8.30
5. N#Cc1cc(-c2ccnc(Nc3cccc(CS(=O)(=O)NCCO)c3)n2)ccc1OC1CCOCC1 [compound 619]	> 8.30
6. N#Cc1cc(-c2ccnc(Nc3ccc(N4CCOCC4)cc3)n2)ccc1Cl [Example 102]	7.30 to 8.30
7. C[C@H](O)C(=O)N1CCC(Oc2ccc(-c3ccnc(Nc4ccc(C(=O)NCCN(C)C)cc4)n3)cc2C#N)CC1 [compound 367]	> 8.30
8. N#Cc1cc(-c2ccnc(Nc3ccc(N4CCOCC4)cc3)n2)ccc1NC(=O)CC(F)(F)F [Example 93]	> 8.30
9. Cc1cc(Nc2nccc(-c3ccc(OC4CCOCC4)c(C#N)c3)n2)ccc1N1CCOCC1 [Example 18]	> 8.30
10. COC1CN(Cc2ccc(Nc3nccc(-c4ccc(OC5CCOCC5)c(C#N)c4)n3)cc2)C1 [compound 487]	> 8.30
11. N#Cc1cc(-c2ccnc(Nc3ccc(F)c(OCC(O)CO)c3)n2)ccc1OC1CCOCC1 (stereo not shown) [compound 608]	> 8.30
12. CCN(CC)CCOc1ccc(Nc2nccc(-c3ccc(OC4CCOCC4)c(C#N)c3)n2)cc1OC [compound 530]	> 8.30
13. CC(C)Nc1ccc(-c2ccnc(Nc3ccc(N4CCOCC4)cc3)n2)cc1C#N [Example 211]	> 8.30
14. COc1ccc(-c2ccnc(Nc3ccc(S(=O)(=O)NCCN(C)C)c(OC)c3)n2)cc1C#N [compound 384]	7.30 to 8.30
15. CC(=O)Nc1cccc(Nc2nccc(-c3ccc(OC4CCOCC4)c(C#N)c3)n2)c1 [compound 656]	> 8.30
16. COc1cc(Nc2nccc(-c3ccc(OC4CCN(C(=O)[C@H](C)O)CC4)c(C#N)c3)n2)ccc1C(=O)NCCCN(C)C [compound 376]	> 8.30

----------
Test system: IKKε-mediated phosphorylation of IRF3
protocol-text: In-situ phosphorylation of IRF3 (pIRF3 Ser396 ELISA) in HEK293T cells cotransfected with IRF3 and IKKε
Type: cell-based
measurement-conditions: Homo sapiens, HEK-293T; HEK293T cells in culture, Table 3; read-out: pIRF3 ELISA IC50
Procedure: HEK293T cells were cotransfected in a 10-cm dish with IRF3 and IKKε expression plasmids using Lipofectamine 2000 (Invitrogen, Carlsbad, Calif.). […] Cell lysates were prepared and analyzed using an ELISA for phospho-Ser396 (anti-IRF3 capture antibody, Santa Cruz Biotechnology, Inc., Santa Cruz, Calif.; anti-p-Ser396 IRF3 detection antibody, Cell Signaling, Danvers, Mass.). pIRF3 levels in compound treated cells were normalized to DMSO treated cells (no compound). […]
pIC50: −log10 of the molar value.
Label Condition met when pIC50 >= 7; otherwise Condition not met.

1. CN(C)CCCNS(=O)(=O)c1ccc(Nc2nccc(-c3ccc(OC4CCOCC4)c(C#N)c3)n2)cc1	Condition not met
2. COc1cc(Nc2nccc(-c3ccc(OC4CCOCC4)c(C#N)c3)n2)ccc1C(=O)N1CCCC1	Condition met
3. COc1cc(Nc2nccc(-c3ccc(O[C@@H]4CCN(C(=O)CO)C4)c(C#N)c3)n2)ccc1N1CCOCC1	Condition met
4. CN(C)S(=O)(=O)Cc1cccc(Nc2nccc(-c3ccc(OC4CCOCC4)c(C#N)c3)n2)c1	Condition not met
5. N#Cc1cc(-c2ccnc(Nc3cccc(CS(=O)(=O)NCCO)c3)n2)ccc1OC1CCOCC1	Condition not met
6. N#Cc1cc(-c2ccnc(Nc3cccc(CN4CCC(O)C4)c3)n2)ccc1OC1CCOCC1 (centres unmarked)	Condition met
7. N#Cc1cc(-c2ccnc(Nc3cccc(-c4nnn[nH]4)c3)n2)ccc1OC1CCOCC1	Condition not met
8. COc1cc(Nc2nccc(-c3ccc(OC4CCOCC4)c(C#N)c3)n2)ccc1C(=O)N1CCN2CCCC2C1 (centres unmarked)	Condition met
9. CN(C)C(=O)Nc1cccc(Nc2nccc(-c3ccc(OC4CCOCC4)c(C#N)c3)n2)c1	Condition met
10. N#Cc1cc(-c2ccnc(Nc3cccc(NC(=O)N4CCOCC4)c3)n2)ccc1OC1CCOCC1	Condition met
11. CNS(=O)(=O)Cc1cccc(Nc2nccc(-c3ccc(OC4CCOCC4)c(C#N)c3)n2)c1	Condition not met
12. COc1cc(Nc2nccc(-c3ccc(OC4CCOCC4)c(C#N)c3)n2)ccc1S(=O)(=O)N1CCCN(C)CC1	Condition met
13. N#Cc1cc(-c2ccnc(Nc3ccc(N4CCN(CCO)CC4)cc3)n2)ccc1OCC1CC1	Condition met
14. N#Cc1cc(-c2ccnc(Nc3cccc(CS(=O)(=O)NCCO)c3)n2)ccc1NC(=O)C1CC1	Condition not met
15. COCCNC(=O)Nc1cccc(Nc2nccc(-c3ccc(OC4CCOCC4)c(C#N)c3)n2)c1	Condition met
16. CC(C)COc1ccc(-c2ccnc(Nc3ccc(N4CCOCC4)cc3)n2)cc1C#N	Condition not met
17. N#Cc1cc(-c2ccnc(Nc3cccc(N4CCN(CCO)CC4)c3)n2)ccc1OC1CCOCC1	Condition met
18. COc1cc(Nc2nccc(-c3ccc(OC4CCN(C(=O)CO)CC4)c(C#N)c3)n2)ccc1N1CCOCC1	Condition met
19. N#Cc1cc(-c2ccnc(Nc3cccc(CN4CCN(CCO)CC4)c3)n2)ccc1OC1CCOCC1	Condition met
20. COc1cc(Nc2nccc(-c3ccc(OC4CCOCC4)c(C#N)c3)n2)ccc1S(=O)(=O)NCCCN1CCOCC1	Condition met
21. COCCOC1CN(C(=O)c2ccc(Nc3nccc(-c4ccc(OC5CCOCC5)c(C#N)c4)n3)cc2OC)C1	Condition met
22. COc1cc(Nc2nccc(-c3ccc(OC4CCOCC4)c(C#N)c3)n2)ccc1C(=O)NC1CCN(C)CC1	Condition not met

----------
assayed-target: TBK1 (Homo sapiens, UniProt Q9UHD2)
Construct: His-tag; made in house; host or cells: Sf9 insect cells
Sequence (Q9UHD2 whole entry): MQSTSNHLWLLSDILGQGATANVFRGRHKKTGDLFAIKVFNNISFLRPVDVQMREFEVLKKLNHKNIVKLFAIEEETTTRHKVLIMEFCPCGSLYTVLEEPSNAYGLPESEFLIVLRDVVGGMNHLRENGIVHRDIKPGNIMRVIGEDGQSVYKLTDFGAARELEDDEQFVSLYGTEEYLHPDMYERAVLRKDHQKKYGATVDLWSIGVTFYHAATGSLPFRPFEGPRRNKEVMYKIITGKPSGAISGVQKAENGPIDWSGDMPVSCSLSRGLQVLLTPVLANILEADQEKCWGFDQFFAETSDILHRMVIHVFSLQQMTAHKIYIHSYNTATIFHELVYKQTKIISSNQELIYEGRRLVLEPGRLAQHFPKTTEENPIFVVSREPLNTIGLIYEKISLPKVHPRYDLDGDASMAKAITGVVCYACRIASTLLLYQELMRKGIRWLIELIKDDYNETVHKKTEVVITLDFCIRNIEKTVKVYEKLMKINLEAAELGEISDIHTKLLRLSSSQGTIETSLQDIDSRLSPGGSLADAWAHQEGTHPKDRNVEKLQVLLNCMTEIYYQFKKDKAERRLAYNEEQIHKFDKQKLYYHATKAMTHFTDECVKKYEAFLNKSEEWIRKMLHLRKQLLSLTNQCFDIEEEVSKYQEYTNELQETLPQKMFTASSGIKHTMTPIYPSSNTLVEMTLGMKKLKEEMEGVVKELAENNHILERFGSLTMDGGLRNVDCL
protocol-text: In-vitro TBK1 kinase assay ([γ33]ATP filter-plate)
Format: biochemical
measurement-conditions: Table 3; read-out: TBK1 IC50
Simple rule here: IC50 less than 0.4 nM is rule met, otherwise rule not met.

1. CN1CCN(CCNc2cccc(Nc3nccc(-c4ccc(OC5CCOCC5)c(C#N)c4)n3)c2)CC1 [compound 616]	rule not met
2. Cc1ccc(Nc2nccc(-c3ccc(OC4CCOCC4)c(C#N)c3)n2)cc1N1CCOCC1 [compound 590]	rule not met
3. N#Cc1cc(-c2ccnc(Nc3cccc(NCCN4CCOCC4)c3)n2)ccc1OC1CCOCC1 [compound 657]	rule not met
4. CNS(=O)(=O)Cc1cccc(Nc2nccc(-c3ccc(OC4CCOCC4)c(C#N)c3)n2)c1 [compound 648]	rule not met
5. COc1cc(Nc2nccc(-c3ccc(O[C@@H]4CCN(C(=O)CO)C4)c(C#N)c3)n2)ccc1N1CCOCC1 [compound 588]	rule met
6. COc1cc(Nc2nccc(-c3ccc(OC4CCOCC4)c(C#N)c3)n2)ccc1S(=O)(=O)NCCCN1CCOCC1 [Example 176]	rule met
7. COCCNC(=O)c1ccc(Nc2nccc(-c3ccc(OCC(C)C)c(C#N)c3)n2)cc1 [compound 565]	rule not met
8. COc1cc(Nc2nccc(-c3ccc(OC4CCOCC4)c(C#N)c3)n2)ccc1S(=O)(=O)N1CCCN(C)CC1 [compound 392]	rule met

----------
assayed-target: IKKε (Homo sapiens, UniProt Q14164)
Construct: His-tag; made in house; host or cells: Sf9 insect cells
protocol-text: In-vitro IKKε kinase assay ([γ33]ATP filter-plate)
Type: biochemical
measurement-conditions: text bins; read-out: IC50 for inhibition of the kinase activity of IKKε
pIC50: −log10 of the molar value.
reported-property: pIC50

1. N#Cc1cc(-c2ccnc(Nc3ccc(CS(=O)(=O)NCCCN4CCOCC4)cc3)n2)ccc1OC1CCOCC1	> 8.30
2. CC(C)COc1ccc(-c2ccnc(Nc3ccc(N4CCOCC4)cc3)n2)cc1C#N	> 8.30
3. COc1ccc(-c2ccnc(Nc3cccc(Cl)c3)n2)cc1C#N	6.30 to 7.30
4. CC(C)C(=O)Nc1ccc(-c2ccnc(Nc3ccc(OCCN4CCOCC4)cc3)n2)cc1C#N	7.30 to 8.30
5. CC(C)Oc1ccc(-c2ccnc(Nc3ccc(N4CCOCC4)cc3)n2)cc1C#N	> 8.30
6. COC(=O)c1ccc(Nc2nccc(-c3ccc(OC4CCN(C(=O)[C@H](C)O)CC4)c(C#N)c3)n2)cc1OC	7.30 to 8.30
7. COc1ccc(-c2ccnc(Nc3cc(CNCCO)c(OC)c(OC)c3)n2)cc1C#N	7.30 to 8.30
8. N#Cc1cc(-c2ccnc(Nc3cccc(NC(=O)NC4CCC(O)CC4)c3)n2)ccc1OC1CCOCC1 (stereo not shown)	> 8.30
9. COc1cc(NC(=O)N2CC[C@H](O)C2)cc(Nc2nccc(-c3ccc(OC)c(C#N)c3)n2)c1	7.30 to 8.30
10. CS(=O)(=O)N(c1ccc(-c2ccnc(Nc3ccc(N4CCOCC4)cc3)n2)cc1C#N)S(C)(=O)=O	7.30 to 8.30
11. COc1ccc(-c2ccnc(Nc3cccc(NC(=O)NCCO)c3)n2)cc1C#N	7.30 to 8.30
12. N#Cc1cc(-c2ccnc(Nc3ccc(N4CCOCC4)cc3)n2)ccc1OCC1CCOCC1	> 8.30
13. COc1cc(Nc2nccc(-c3ccc(OC4CCOCC4)c(C#N)c3)n2)ccc1C(=O)N1CCN2CCCC2C1 (stereo not shown)	> 8.30
14. COc1cc(Nc2nccc(-c3ccc(OC4CCOCC4)c(C#N)c3)n2)ccc1C(=O)NCCCN(C)C	> 8.30
15. Cc1nnsc1C(=O)Nc1ccc(-c2ccnc(Nc3ccc(N4CCOCC4)cc3)n2)cc1C#N	> 8.30
16. CN(C)C1CCN(c2cccc(Nc3nccc(-c4ccc(OC5CCOCC5)c(C#N)c4)n3)c2)C1 (stereo not shown)	> 8.30
